Each recorded value in this set is attributed to patent US8883782B2.

Test system: Abeta 40 in cerebrospinal fluid (CSF) and brain
MEASUREMENT_NOTES: In vivo inhibition of beta-secretase (Abeta 40 reduction in CSF and brain)
EXPERIMENTAL_CONDITIONS: rat, brain, Abeta 40, 10 mg/kg (10 mpk), after 4 hrs; read-out: Brain A-beta reduction % at 10 mg/kg
This section presents molecules with their documented inhibition in vivo at 10 mg/kg values.
MEASUREMENT_KIND: inhibition in vivo at 10 mg/kg (%)

substance_smiles=CC(C)(C)C#Cc1cnc2c(c1)[C@]1(COC(N)=N1)c1cc(-c3cncnc3)c(F)cc1O2 result_unit=% measured_result=29
substance_smiles=Cn1cc(-c2cc(F)c3c(c2)[C@]2(COC(N)=N2)c2cc(-c4ccc(F)nc4)ccc2O3)cn1 result_unit=% measured_result=11
substance_smiles=Cc1cnc(-c2cc(F)c3c(c2)[C@]2(COC(N)=N2)c2cc(-c4cccnc4F)ccc2O3)nc1 result_unit=% measured_result=19
substance_smiles=NC1=N[C@@]2(CS1)c1cc(-c3cccnc3F)ccc1Oc1c(F)cc(C3=CCCOC3)cc12 result_unit=% measured_result=57
substance_smiles=NC1=N[C@@]2(CO1)c1cc(-c3c(F)ccnc3F)ccc1Oc1cnc(C3=CCOCC3)cc12 result_unit=% measured_result=69
substance_smiles=NC1=N[C@@]2(CO1)c1cc(-c3cccnc3)ccc1Oc1c2cc(N2CCC(F)(F)C2)nc1F result_unit=% measured_result=44
substance_smiles=NC1=N[C@@]2(CS1)c1cc(-c3cccnc3F)ccc1Oc1c(F)cc(N3CCC(F)(F)C3)cc12 result_unit=% measured_result=53
substance_smiles=NC1=N[C@@]2(CO1)c1cc(-c3cncc(F)c3)ccc1Oc1c2cc(N2CCC(F)(F)CC2)nc1F result_unit=% measured_result=65
substance_smiles=NC1=N[C@@]2(CO1)c1cc(-c3cncc(F)c3)ccc1Oc1c2cc(N2CCOCC2)nc1F result_unit=% measured_result=70
substance_smiles=CC1(C#Cc2cnc3c(c2)[C@]2(COC(N)=N2)c2cc(-c4cccc(Cl)c4F)ccc2O3)COC1 result_unit=% measured_result=9
substance_smiles=NC1=N[C@@]2(CO1)c1cc(-c3cncc(F)c3)ccc1Oc1cnc(N3CCC(F)(F)CC3)cc12 result_unit=% measured_result=44
substance_smiles=CC1(C#Cc2cc3c(nc2F)Oc2ccc(-c4cccnc4F)cc2[C@@]32COC(N)=N2)COC1 result_unit=% measured_result=44
substance_smiles=NC1=N[C@@]2(CS1)c1cc(-c3cccnc3F)ccc1Oc1c(F)cc(-c3ncccn3)cc12 result_unit=% measured_result=54
substance_smiles=NC1=N[C@@]2(CS1)c1cc(-c3cccnc3F)ccc1Oc1cnc(C3=CCCOC3)cc12 result_unit=% measured_result=71
substance_smiles=NC1=N[C@@]2(CS1)c1cc(-c3cccnc3F)ccc1Oc1c2cc(C2CCOCC2)nc1F result_unit=% measured_result=73
